Each entry below lists one item and its recorded EC50 value.
# Tested on: ATF4 luciferase reporter
# assay.procedure: ATF4-Luc assay in HEK293T cells carrying the ATF4 luciferase reporter (in vitro model of VWMD)
# Format: cell-based, human
# run.parameters: Homo sapiens, HEK-293T, 1 μg/mL tunicamycin, 7 hours, luminescence (One Glo)

Record excerpt, results attached:
molecule	measured.property	reported.value
CCc1csc(CCNC(=O)C23CC(NC(=O)COc4ccc(Cl)c(F)c4)(C2)C3)n1	EC50	> 2000 nM
COc1ccc(CNC(=O)C23CC(NC(=O)COc4ccc(Cl)c(F)c4)(C2)C3)cn1	EC50	> 2000 nM
O=C(COc1ccc(F)cc1)NC12CCC(C(=O)NCc3ccc(C(F)(F)F)cn3)(CC1)C(O)C2 (stereo not drawn)	EC50	< 250 nM
COc1ccc(CNC(=O)C23CC(NC(=O)COc4ccc(Cl)c(F)c4)(C2)C3)cc1Cl	EC50	> 2000 nM
Cc1ccc(C)c(CNC(=O)C23CC(NC(=O)COc4ccc(Cl)c(F)c4)(C2)C3)c1	EC50	> 2000 nM

Query (molecule): O=C(COc1ccc(Cl)c(F)c1)NC12CC(C(=O)NCc3ccncc3)(C1)C2 ; field requested: EC50
> 2000 nM

Reported EC50 for O=C(COc1ccc(Cl)c(F)c1)NC12CCC(C(=O)NCc3ccc(C(F)(F)F)cn3)(CC1)C(O)C2 (stereo not drawn) : what is it?
< 250 nM

What EC50 value was documented for this molecule, COc1ncc(CNC(=O)C23CC(NC(=O)COc4ccc(Cl)c(F)c4)(C2)C3)cn1 ?
> 2000 nM
